STUDY SYSTEM: DLG2_3, Q15700
ASSAY TEXT: holdup assay
Parameters: key: below the threshold = too weak to quantify, mostly under pKd 3.1 to 4
ASSAY CONTEXT: plain residues with an end cap or a label only (N-terminal biotin on a linker: ado-ado)
Documented pKd across a set of binders
Lab note: write the figure by itself, no unit.

                        binder  quantity_measured  endpoint_result
0   ELSATVTTDC [TRIP6, Q15654]                pKd             3.57
1  NNNVVKVDSV [MTNR1A, P48039]                pKd             3.54
2   RSSGGDDFWF [KCNV1, Q6PIU1]                pKd              3.6

For the next question, use this binder.
Query: Record request: pKd value, item SVTSERETNI [SLC16A7, O60669]
Result: 3.62
